Test system: SF-268
method-description: NCI tumour cell line growth inhibition, 48 h
Activity calls are given as the source filed them. No stated cut-off is given here; in the data, active = GI50 up to about 1.1 µM and inactive = higher.
Hi! Could you answer with just one of these? active, inactive

>  <compound>
COC1CC(OC2CCC3(C)C(=CCC4C3C(OC(C)=O)C(OC(=O)CC(C)C)C3(C)C(C(C)=O)CCC43O)C2)OC(C)C1OC1CC(OC)C(OC2CC(OC)C(OC3OC(C)C(OC4OC(CO)C(O)C(O)C4O)C(OC)C3O)C(C)O2)C(C)O1 (stereo not drawn)

>  <target-system>
SF-268

>  <class-name>
inactive

$$$$

# input Lab log entry: Cc1cc(Br)cc(C)c1NC(=O)C(=O)C(C(=O)c1ccncc1)C1OC(=O)c2ccccc21 (stereo not drawn) — outcome as called in the assay?
# output inactive

# input Lab log entry: `Clc1ccc(/C=C/c2nc(-c3ccc(Cl)cc3)cn3c2nc2ccccc23)cc1` — outcome as called in the assay?
# output inactive

# input Lab log entry: `O=C(NN=C1NCCCCN1)Nc1ccc(Cl)cc1` — outcome as called in the assay?
# output inactive

# input Lab log entry: COC(=O)C1CCCN1C(=O)OC(C)(C)C (stereo not drawn) — outcome as called in the assay?
# output inactive

# input Lab log entry: `C1CCNCC1.Oc1ncnc2[nH]cc(CN3CCCCC3)c12` — outcome as called in the assay?
# output inactive
